Test: total protein half-life in vivo (active degradation + dilution); higher = more stable protein
Conditions: wild type E. coli NCM3722; growth: N-lim chemostat; doubling time 12 h
I'd appreciate it if you could supply total protein half-life in vivo values for the items below.
# do not omit the unit; it follows the number

INSERT INTO results (sequence_content, result) VALUES
  ('MAFQVKIHQIRAFVEVARQGSIRGASRMLNMSQPALSKSIQELEEGLAAQLFFRRSKGVTLTDAGESFYQHASLILEELRAAQEDIRQRQGQLAGQINIGMGASISRSLMPAVISRFHQQHPQVKVRIMEGQLVSMINELRQGELDFTINTYYQGPYDHEFTFEKLLEKQFAIFCRPGHPAIGARSIKQLLDYSWTMPTPHGSYYKQLSELLDDQAQTPQVGVVCETFSACISLVAKSDFLSKLPEEMGCDPLHGQGLVMLPVSEILPKAAYYLIQRRDSRQTPLTASLITQFRRECGYLQS', '0.857 h'),
  ('MTMKKLLIIILPVLLSGCSAFNQLVERMQTDTLEYQCDEKPLTVKLNNPRQEVSFVYDNQLLHLKQGISASGARYTDGIYVFWSKGDEATVYKRDRIVLNNCQLQNPQR', '14.4 h'),
  ('MAIDENKQKALAAALGQIEKQFGKGSIMRLGEDRSMDVETISTGSLSLDIALGAGGLPMGRIVEIYGPESSGKTTLTLQVIAAAQREGKTCAFIDAEHALDPIYARKLGVDIDNLLCSQPDTGEQALEICDALARSGAVDVIVVDSVAALTPKAEIEGEIGDSHMGLAARMMSQAMRKLAGNLKQSNTLLIFINQIRMKIGVMFGNPETTTGGNALKFYASVRLDIRRIGAVKEGENVVGSETRVKVVKNKIAAPFKQAEFQILYGEGINFYGELVDLGVKEKLIEKAGAWYSYKGEKIGQGKANATAWLKDNPETAKEIEKKVRELLLSNPNSTPDFSVDDSEGVAETNEDF [P0A7G6]', '4.94 h');

Okay, now this sequence:
Exercise: Query (sequence): MKTLILFSTRDGQTREIASYLASELKELGIQADVANVHRIEEPQWENYDRVVIGASIRYGHYHSAFQEFVKKHATRLNSMPSAFYSVNLVARKPEKRTPQTNSYARKFLMNSQWRPDRCAVIAGALRYPRYRWYDRFMIKLIMKMSGGETDTRKEVVYTDWEQVANFAREIAHLTDKPTLK [P0ACB4] ; field requested: total protein half-life in vivo
Solution: 11.2 h
